Biological target: Human BACE2 (Homo sapiens, UniProt Q9Y5Z0)
Construct: the soluble part of the human β-Secretase2 (AA1-AA473) was cloned using BACE2(1-473)-(AVT)-Fc-pDEST12.2 mammalian expression vector; AVT linker (C); made in house
Sequence (Q9Y5Z0 21-473): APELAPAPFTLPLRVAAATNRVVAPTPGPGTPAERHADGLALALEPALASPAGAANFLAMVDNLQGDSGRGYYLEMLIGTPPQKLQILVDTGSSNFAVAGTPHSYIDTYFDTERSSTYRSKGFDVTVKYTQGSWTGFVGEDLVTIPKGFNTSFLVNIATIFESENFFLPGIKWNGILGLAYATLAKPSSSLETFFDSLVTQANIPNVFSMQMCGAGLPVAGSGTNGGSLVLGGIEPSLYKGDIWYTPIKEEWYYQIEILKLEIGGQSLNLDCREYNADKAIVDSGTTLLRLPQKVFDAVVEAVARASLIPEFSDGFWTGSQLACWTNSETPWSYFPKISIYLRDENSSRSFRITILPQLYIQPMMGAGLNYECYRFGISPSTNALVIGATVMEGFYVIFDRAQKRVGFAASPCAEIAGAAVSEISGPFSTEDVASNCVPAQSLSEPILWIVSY
Assay: TR-FRET assay
Type: biochemical
Settings: enzyme 2.7 μg/mL, substrate 100 nM, pH4.5
This section presents compounds with their documented pIC50 values.
Remember, pIC50 is on a log scale: it is -log10 of the molar concentration.

Solved cases (2 shown):
[
  {
    "COMPOUND": "[2H]C1([2H])OC(N)=NC12c1cc(-c3cc(C#N)cc(OC)c3)ccc1C[C@@]21CC[C@H](O)[C@@H](C)C1 (stereo partly shown) [Compound 49]",
    "pIC50": 7.16
  },
  {
    "COMPOUND": "[2H]C1([2H])OC(N)=N[C@]12c1cc(C#N)ccc1C[C@]21CC[C@@H](OC)[C@H](C)C1 [Compound 119]",
    "pIC50": 5.96
  }
]

// query Look up pIC50 for this compound: [2H]C1([2H])OC(N)=NC12c1cc(/C=N/OCC)ccc1C[C@]21CC[C@@H](OC)CC1 (stereo partly shown) [Compound 56]
// result 5.49

// query Look up pIC50 for this compound: [2H]C1([2H])OC(N)=N[C@]12c1cc(-c3cc(F)cc(C#N)c3)ccc1C[C@]21CC[C@@H](OC)[C@H](C)C1 [Compound 17]
// result 7.52

// query Look up pIC50 for this compound: [2H]C1([2H])OC(N)=N[C@]12c1cc(-c3cc(C#N)cc(OC)c3)ccc1C[C@]21CC[C@@H](OC)[C@H](C)C1 [Compound 24]
// result 7.74

// query Look up pIC50 for this compound: CO[C@H]1CC[C@]2(CC1)Cc1ccc(-c3cncc(C(F)(F)F)c3)cc1C21COC(N)=N1 (stereo partly shown) [Compound 42]
// result 6.66

* * *

Biological target: Human BACE2 (Homo sapiens, UniProt Q9Y5Z0)
Construct: the soluble part of the human β-Secretase2 (AA1-AA473) was cloned using BACE2(1-473)-(AVT)-Fc-pDEST12.2 mammalian expression vector; AVT linker (C); made in house
Test: TR-FRET assay
Assay type: biochemical
Conditions: enzyme 2.7 μg/mL, substrate 100 nM, pH4.5
Each record is given Fulfilled if its reported IC50 is strictly below 100 nM. Records at or above 100 nM are given Not fulfilled.

Please review the entries below; each comes with its answer.
[
  {
    "MOLECULE": "[2H]C1([2H])OC(N)=N[C@]12c1cc(-c3cncc(C(F)(F)F)c3)ccc1C[C@@]21CC[C@H](OC)[C@@H](C)C1 [Compound 26]",
    "LABEL": "Fulfilled"
  },
  {
    "MOLECULE": "[2H]C1([2H])OC(N)=NC12c1cc(/C(C)=N/OCCC(F)(F)F)ccc1C[C@]21CC[C@@H](OC)CC1 (some centres unmarked) [Compound 60]",
    "LABEL": "Not fulfilled"
  },
  {
    "MOLECULE": "[2H]C([2H])([2H])O[C@H]1CC[C@@]2(Cc3ccc(-c4cncc(F)c4)cc3[C@]23N=C(N)OC3([2H])[2H])C[C@@H]1C [Compound 66]",
    "LABEL": "Not fulfilled"
  },
  {
    "MOLECULE": "[2H]C1([2H])CC2(N=C(N)O1)c1cc(-c3cncnc3)ccc1C[C@]21CC[C@@H](OC)CC1 (some centres unmarked) [Compound 82]",
    "LABEL": "Not fulfilled"
  },
  {
    "MOLECULE": "[2H]C([2H])([2H])O[C@@H]1CC[C@]2(Cc3ccc(-c4cnccn4)cc3[C@]23N=C(N)OC3([2H])[2H])C[C@H]1C [Compound 81]",
    "LABEL": "Not fulfilled"
  },
  {
    "MOLECULE": "[2H]C1([2H])OC(N)=N[C@]12c1cc(-c3cncc(C#CC)c3)ccc1C[C@@]21CC[C@H](OC)[C@@H](C)C1 [Compound 3]",
    "LABEL": "Fulfilled"
  }
]

// query Input [2H]C([2H])([2H])O[C@@H]1CC[C@]2(Cc3ccc(-c4cccnc4)cc3[C@]23N=C(N)OC3([2H])[2H])C[C@H]1C [Compound 80] ; condition: IC50 strictly below 100 nM. Does it hold?
// result Not fulfilled

// query Input CO[C@H]1CC[C@]2(CC1)Cc1ccccc1C21COC(N)=N1 (some centres unmarked) [Compound 64] ; condition: IC50 strictly below 100 nM. Does it hold?
// result Not fulfilled

// query Input NC1=NC2(CO1)c1cc(-c3cncnc3)ccc1CC2C1CCOCC1 (centres unmarked) [Compound 94] ; condition: IC50 strictly below 100 nM. Does it hold?
// result Not fulfilled

// query Input [2H]C1([2H])OC(N)=NC12c1cc(/C(C)=N/OCC)ccc1C[C@]21CC[C@@H](OC)CC1 (some centres unmarked) [Compound 65] ; condition: IC50 strictly below 100 nM. Does it hold?
// result Not fulfilled

// query Input CC#Cc1cncc(-c2ccc3c(c2)C2(COC(N)=N2)C(N2CCOCC2)C3)c1 (centres unmarked) [Compound 99] ; condition: IC50 strictly below 100 nM. Does it hold?
// result Not fulfilled

// query Input [2H]C1([2H])OC(N)=N[C@]12c1cc(-c3cnccn3)ccc1C[C@]21CC[C@@H](OC)[C@H](C)C1 [Compound 69] ; condition: IC50 strictly below 100 nM. Does it hold?
// result Not fulfilled

// query Input [2H]C1([2H])OC(N)=NC12c1cc(C([2H])([2H])C([2H])([2H])C(C)C)ccc1C[C@@]21C[C@@H](C)[C@H](OC)[C@@H](C)C1 (some centres unmarked) [Compound 40] ; condition: IC50 strictly below 100 nM. Does it hold?
// result Not fulfilled
